tested on: P388 leukemia ip, CD2F1 mice, survival T/C; assay: NCI In Vivo Anticancer Drug Screen. Data for tumor model P388 Leukemia (intraperitoneal) in CD2F1 (CDF1) mice; settings: endpoint: median survival time; dose: 200.0 mg/kg/injection; schedule: Q01DX005 (ip); vehicle: Klucel (hydroxypropylcellulose) (HPC); higher = longer survival
Toxic doses and inconclusive results are not listed.
As shown below, each of these compounds has a reported T/C value.

Example entries begin here.
Compound	T/C
CNC(=O)OC1=NCCN1	99 % of control
NC1(C(=O)O)CCc2ccccc2C1 (stereo unspecified)	100 % of control
CCCOC1=NC2=NC(OCCC)=NC3=C(Br)C=C(Br)C(=N1)N23	91 % of control
CCCCOC(=O)/C=C/C(=O)N1CC(C)N(C(=O)/C=C/C(=O)OCCCC)CC1C (stereo unspecified)	100 % of control
CC1(C)CC(Nc2ccccc2)=CC(=S)N1	100 % of control

# ---- query compound ----
Q) What value of T/C has been reported for the following compound? COc1cc2c(cc1OC)C1C(CC(=O)O)CCCN1CC2 (stereo unspecified)
A) 100 % of control

* * *

system: P388 leukemia ip, CD2F1 mice, survival T/C; assay: NCI In Vivo Anticancer Drug Screen. Data for tumor model P388 Leukemia (intraperitoneal) in CD2F1 (CDF1) mice; conditions: endpoint: median survival time; dose: 6.25 mg/kg/injection; schedule: Q01DX005 (ip); vehicle: Klucel (hydroxypropylcellulose) (HPC); higher = longer survival
Inconclusive results and toxic doses are left out.
Parameter: T/C

Compound	Parameter	Result value
CC(=O)OCC1=C(C)CC(C(C)C2CCC3C4CC5OC56C(OC(C)=O)C(N5CC5)CC(=O)C6(C)C4CCC23C)OC1=O (configuration not stated)	T/C	98 % of control
CCc1nc(N)nc(N)c1-c1ccc(N(C)C)cc1	T/C	97 % of control

Q) Give T/C (P388 leukemia ip, CD2F1 mice, survival T/C) of the following compound: Cc1ccc(-n2c(C)nc3[nH]cc(C)c3c2=N)cc1
A) 101 % of control

Q) // query: O=C1c2c(Cl)c(Cl)c(Cl)c(Cl)c2C(=O)C2(Cl)CC=CCC12Cl (configuration not stated)
A) 101 % of control

Q) // query: COc1nc(N)c([N+](=O)[O-])c(C(Br)Br)n1
A) 104 % of control

Q) // query: CC1(C)CCC[C@]2(C)[C@@H](C=O)C(C=O)=CC[C@@H]12
A) 103 % of control

Q) // query: CCCOC(=O)NC(C)C(=O)NC(CCC(=O)NC(CCCC(N)C(=O)O)C(=O)NC(C)C(=O)O)C(=O)O (configuration not stated)
A) 100 % of control

* * *

tested on: P388 leukemia ip, CD2F1 mice, survival T/C; experiment: NCI In Vivo Anticancer Drug Screen. Data for tumor model P388 Leukemia (intraperitoneal) in CD2F1 (CDF1) mice; settings: endpoint: median survival time; dose: 25.0 mg/kg/injection; schedule: Q01DX005 (ip); vehicle: saline with Tween-80; higher = longer survival
Inconclusive results and toxic doses are left out.
Parameter: T/C

Example entries begin here.
Compound	T/C
CC(C)(C)OC(=O)NC(CCC(=O)O)(Cc1ccccc1)C(=O)NC(CCC(=O)O)(Cc1ccccc1)C(=O)OCc1ccccc1 (centres undefined)	88 % of control
O=[N+]([O-])C(c1ccccc1)C(c1ccccc1)[N+](=O)[O-] (centres undefined)	101 % of control
Cc1cc(C=C2C(=O)NC(=O)NC2=O)cc(C)c1O	103 % of control

Q) What value of T/C has been reported for the following compound? COc1cc(NCCCCCNCC(C)(C)C)c2ncccc2c1
A) 107 % of control
